System: SF-268 CNS
Test: NCI tumour cell line growth inhibition, 48 h
recorded endpoint: TGI

// known answers, use as guide
CN(C)C(=S)NC(=S)Nc1ccc2ccccc2c1
47.3 µM
COC(=O)C1CC2c3c(c4ccccc4n3C)CC(C1=O)N2C (stereo not drawn)
> 100 µM
COC(=O)CCC1(C)C2CCC1/C(=N/O)C2 (stereo not drawn)
> 100 µM

// input: 3 compounds below; output: TGI for each
1. COc1ccc2ccnc(Cc3ccc(OCc4ccccc4)c(OC)c3)c2c1
2. COc1ccc(C2Oc3ccc(O)cc3[C@@H]2C)cc1OC (stereo partly drawn)
3. c1ccc(-c2ccc(-c3ccc(C4=NCCN4)cc3)o2)cc1

1. 70.3 µM
2. > 100 µM
3. 8.4 µM

For each entry beneath this line, provide reported TGI.
1. COC1CC(OC2C(C)OC(OC3C(C)OC(OC4CCC5(C)C(=CCC6(O)C5CC(OC(=O)c5ccc(O)cc5)C5(C)C(O)(C(C)=O)CCC65O)C4)CC3OC)CC2OC)OC(C)C1O (stereo not drawn) (tested in a mixture with another compound)
2. Cc1cccc(C)c1NC(=O)/C=C/c1ccccc1

> 100 µM
> 100 µM

----------
Hi there, I'd appreciate the recorded TGI for every entry that follows.
System: SF-295 CNS
Test: NCI tumour cell line growth inhibition, 48 h

Before answering, review these 5 worked examples.
COCOCCCCCO[Si](C)(C)C(C)(C)C
30.1 µM
CCCC(=O)OCC(COC(=O)CCC)OC(=O)CCC
> 100 µM
COc1cc2c[n+](C)c3c4cc(OC)c(OC)cc4c(OCCCCCCCCOc4cc5c6cc(OC)c(OC)cc6c[n+](C)c5c5cc(OC)c(OC)cc45)cc3c2cc1OC
> 100 µM
CCOC(=O)c1cnc2c(C)cc(C)cc2c1NCCCN(C)C
37.2 µM
O=c1cc(N2CCOCC2)[nH]c(=O)n1-c1cccc(Cl)c1
> 100 µM

# return TGI for each item in the list
1. CCCCCCCCCCCCCCCC(=O)Nc1ccn(C2OC(CO)C(O)C2O)c(=O)n1 (stereo not given)
2. CC(=O)COC(=O)CC(C)=O
3. Cc1nc2ccccc2c(=O)n1NC(=O)c1ccc(N)cc1
4. O=C1/C(=C/c2ccc(Cl)cc2Cl)CN(S(=O)(=O)c2ccccc2)C/C1=C\c1ccc(Cl)cc1Cl
5. CC(C)Cn1cnc2c(Sc3c([N+](=O)[O-])ncn3C)nc(N)nc21

1. > 100 µM
2. > 100 µM
3. > 100 µM
4. 1.99 µM
5. > 100 µM

----------
Test system: HOP-62 NSCLC
Experiment: NCI tumour cell line growth inhibition, 48 h
Answer each item with its documented TGI.

Consider the following illustrative entries.
CCc1n[nH]c(=S)n1/N=C/c1ccc(-c2ccc([N+](=O)[O-])cc2)o1
> 100 µM
N/N=C(\CCN1CCCC1)CC(c1ccccc1)c1c(O)c2ccccc2oc1=O (stereo not given)
> 100 µM
COc1ccc(/C=C/c2cc(OC)cc(OC)c2)cc1
32.6 µM
COc1cc2c(cc1O)[C@@]1(Cc3ccc(OC)c(OC)c3)CCC(=O)N1CC2
> 100 µM
CC(C)Cn1cnc2c(Sc3c([N+](=O)[O-])ncn3C)nc(N)nc21
> 100 µM

For each of the compounds below, state TGI.
1. COc1ccc(CN(Cc2ccc(OC)cc2)C(=O)CC2(O)CCc3ccccc3C2)cc1 (stereo not given)
2. COC1CC(OC2C(C)OC(OC3C(C)OC(OC4CCC5(C)C(=CCC6(O)C5CC(OC(=O)c5ccc(O)cc5)C5(C)C(O)(C(C)=O)CCC65O)C4)CC3OC)CC2OC)OC(C)C1O (stereo not given) (tested in a mixture with another compound)
3. Cc1ccc(NC(=O)CC(=O)n2nc(-c3ccccc3)c(N=Nc3ccccc3[N+](=O)[O-])c2-c2ccccc2)cc1
4. COc1ccc(NC(=O)CSc2nnc(-c3ccc(N=Cc4ccc(Cl)cc4)cc3)o2)cc1
5. O=C1C2=Cc3ccccc3OC2(O)Oc2cc(O)cc(O)c21 (stereo not given)
6. COc1ccc(/C=C/C(=O)c2cc(C(=O)O)c(OC)cc2OC)cc1OC
7. O=C(NCCCCN(CCCNC(=O)C(F)(F)F)Cc1ccccc1)C(F)(F)F

["> 100 µM", "> 100 µM", "> 100 µM", "> 88.6 µM", "> 100 µM", "> 100 µM", "> 100 µM"]

Here are 8 compounds. What values of TGI were reported for them?
1. CCOC(=O)C(C(C)=O)C1CC=CC1 (stereo not given)
2. COC(=O)C1C(O)C(C)C(O)C(C)(O)C=C(C)C2=C3C(=C(C)C(=O)c4c(O)c(c(C)c(OC(C)=O)c43)NC(=O)C(C)=C/C=C\C(C)(O)C(O)C(C)C1O)OCO2 (stereo not given)
3. CCCCCCCCCCCCCCCC(=O)Nc1ccn(C2OC(CO)C(O)C2O)c(=O)n1 (stereo not given)
4. Cc1ccc(/C(O)=C/c2nc3ccccc3[nH]c2=O)cc1
5. N#C/C(=C\c1ccc2c(c1)OCO2)n1nnc2ccccc21
6. CCCCC(CCCC)=NNC(=S)SC
7. N#Cc1cc2c(cc1Cl)SC(=Nc1ccccc1)N(S(=O)(=O)c1ccc(Cl)cc1)S2(=O)=O
8. COc1ccc(OC)c(N(CCN2C(=O)c3ccccc3C2=O)C(=O)CCl)c1

> 100 µM
> 100 µM
> 88 µM
5.16 µM
14.9 µM
> 100 µM
29.9 µM
1.97 µM
